Source listed as the array DNA melting data of Ke et al. (doi:10.1101/2024.01.08.574731).

Give measured Tm for each item. Keep answers brief.
assay: melting temperature; fluorescence melt of hairpins on a sequencing array, two-state fit, raised by 9.35 °C to match UV melts; conditions: sodium 0.088 M
Give the value in °C but do not write °C after it.

// returns reported Tm for input GCTAGGCGAAAGCCCCGC ((..(((....)))..))
32.6

Consider next the sequence GCTATGCGAAAGCAAAGC (((.(((....))).))) in the same way.
51.6

Entry GGTTGAGGAAACTCGATC (.(.(((....))).).) please
29.8

Now consider GCAGAGCGAAAGCTTGC (((.(((....)))))) .
53.7

Okay, and GATCCAACTATGGATC ((((((....)))))) ?
49.6

Now consider GGCACTGGAAACAGCACC ((..(((....)))..)) and answer again.
23.5

----------
test: folding enthalpy; higher = less favourable; fluorescence melt of hairpins on a sequencing array, two-state fit; conditions: sodium 0.088 M
quantity_kind: folding enthalpy (kcal/mol)
Output spec: scalar in kcal/mol, unitless text.

Endpoint output: folding enthalpy of GTGTGCGAAAGCACGCAC ((((((....)))..))) . Value?
-9.49

Input TGAGTGAAAACTCA (((((....)))))
-18.3

Check GGGCGCGAAAGCGTGCCC ((((((....)))..))) too.
-19.1

Try this sequence too: GGCCATCGAAAGATTGCC (((.(((....))).)))
-26.3

Also GGCAGAGCGAAAGCTGCC (((..(((....)))))) ?
-28.6

Please answer likewise for GAACGCGCGAAAGCGTTC (((..(((....))))))
-24.7

----------
assay: folding enthalpy; higher = less favourable; fluorescence melt of hairpins on a sequencing array, two-state fit; conditions: sodium 0.088 M
quantity_kind: folding enthalpy
Could you kindly put the unit after your number?

Name the reported folding enthalpy value associated with the sequence GGAACCGAAAGGTGCTCC ((((((....)))..)))
-12.5 kcal/mol

// next record GCTCACGAAAGTGCCAGC ((((((....)))..)))
-13.1 kcal/mol

Also GGAAATGGAAACATTTCC (((((((....))))))) ?
-41.5 kcal/mol

// repeat for GTACGTGGAAACGCGTAC (((((.(....).))))) and report
-32.2 kcal/mol

One more sequence: GATTACGGAAACGTAACC (.(((((....))))).)
-16.6 kcal/mol

Then what about the sequence GATCAGTGACCTGATC ((((((....)))))) ?
-30.1 kcal/mol

Next record, please: GTGGACGAAAGTCATCAC ((((((....)))..)))
-13.1 kcal/mol

Now the sequence GATCGATGTTTCGATC ((((((....))))))
-43 kcal/mol

And what about the sequence GCTCAGCGAAAGCCGGGC ((.(.((....)).).)) ?
-17.1 kcal/mol

Let us now turn to GCAACTGAAAAGTTGC ((((((....))))))
-36.6 kcal/mol

Similarly, GCGCTAGGAAACTAGTGC ((.((((....)))).)) ?
-44.7 kcal/mol

How about this sequence: GATACACGAAAGTGCATC (((.(((....))).)))
-23.7 kcal/mol

----------
assay: folding enthalpy; higher = less favourable; fluorescence melt of hairpins on a sequencing array, two-state fit; conditions: sodium 0.088 M
So I've got a bunch of sequences here, and I need their folding enthalpy values.
Please state the figure in kcal/mol; there is no need to write the unit.

Need folding enthalpy, item GATCTGTTAGCAGATC ((((((....))))))
-42.9

Also check GGTCATGGAAACATGGTC (..((((....))))..)
-17.6

Next sequence up: GTCGGCGGAAACGCTGGC (.(.(((....))).).)
-21.2

Can you check GATGTGCGAAAGCAATC (((.(((....)))))) next?
-11.3

Entry to check: GATCTAGCAATAGATC ((((((....))))))
-39.6

Also, GATCATCGCTATGATC ((((((....)))))) please.
-38.8

Okay, and GCTCCGCGAAAGCCCAGC (((..((....))..))) ?
-5.26

Also need GATCAATGGATTGATC ((((((....)))))) , thanks.
-28.3

How about GGCATATCGAAAGATGCC (((..(((....)))))) ?
-29

Try this sequence next: GCTGCGCGAAAGCTCTGC ((.(.((....)).).))
-18.2

Same read-out for GTAGACGGAAACATCTAC (((((.(....).))))) ?
-21

Try this sequence too: GGCAACCCGAAAGGGGCC (((..(((....))))))
-23.8

Repeat for the following sequence: GCCTGCGAAAGCATGGGC ((((((....)))..)))
-21.4

Again, but for GCGCTCCGAAAGGACCGC (((.(((....))).)))
-44.6

Now consider GCCTACTCGAAAGAGGGC (((..(((....)))))) and answer again.
-26.4

Same for GTCCGCGAAAGCGTAGAC ((((((....)))..)))
-16.7

// next record GGTTCTGGAAACAGAGTC (..((((....))))..)
-11.8

Ok, now GTGCTGGGAAACCGGTAC ((.(.((....)).).))
-33.1

Another: GATCGGCAATCCGATC ((((((....))))))
-44.7

Now this one: GATCTGCATGCAGATC ((((((....))))))
-46.5

Now give it for GATCGACGTTTCGATC ((((((....)))))) too.
-42.5

Also GAACACGAAAGTGATTTC ((((((....)))..))) , if possible.
-12.3

Next record, please: GCAATTCGAAAGAACTGC (((.(((....))).)))
-31.4

What would you report for GATCGGTTTTCCGATC ((((((....)))))) ?
-45.1

Another: GATCAAACGCTTGATC ((((((....))))))
-29.5

Next sequence up: GAGTACGGAAACGTGTTC ((..(((....)))..))
-10.5

Okay, and GTTCCCGAAAGGGCAAC ((((((....))).))) ?
-14.7

Further, for GAGAGCGAAAGCTACTC ((((((....))).))) ?
-14.5

Also GATCGATGCCTCGATC ((((((....)))))) ?
-38.1

# repeat for GGAATAACGAAAGTTTCC (((..(((....))))))
-14.8

Same thing, different sequence: GTCCCCGAAAGGGGCGAC ((((((....)))..)))
-14

Try GATCTTCTCTAAGATC ((((((....)))))) next.
-35

What do you have for GATCCGCAGACGGATC ((((((....)))))) ?
-36.3

And the next one, GATCAACCTTTGATC ((((((...)))))) ?
-32.4

Follow-up entry: GCTGGTCGAAAGACAGC (((.(((....))))))
-27.3

Another sequence to look at: GCATAGCGAAAGCTTCGC ((..(((....)))..))
-10.1

Query GTCTGTGGAAACACAAAC ((.((((....)))).)) next
-12.3

How about GGAATAGCGAAAGCTTCC (((..(((....)))))) ?
-20.2

Queued: GATCGGATCTCCGATC ((((((....))))))
-40.4

Then what about the sequence GTCTACGAAAGTATAGAC ((((((....)))..))) ?
-24.4

Next sequence: GTAGAACGAAAGTTGTAC (((.(((....))).)))
-31.7

Try this sequence too: GGTGGAGGAAACTCCGCC ((.((((....)))).))
-46

Input GAAGTCGAAAGACTTC ((((((....))))))
-34.2

Next entry: GATCACCCCGTGATC ((((((...))))))
-43.2

Check GTTCTCGGAAACGAGAGC (.(((((....))))).) too.
-27.5

Also GCGGGTCCCCGC ((((....)))) , if possible.
-23.5

Next: GAAGATGGAAACATTTTC (((.(((....))).)))
-21.9

Proceed to GTTCCAGGAAACTGGGAC ((.((((....)))).))
-27.6

Again, but for GGAACCGAAAGGTGTCC ((((((....))).)))
-17.7

Another sequence to look at: GCTTGGCCGAAAGGCAGC (((..(((....))))))
-14.4
